The reported numbers originate from the supplement of paper PMC8975748.

Test system: Saccharomyces cerevisiae BY4741 SeMeCo community
Experiment: z-score of subpopulation abundance vs DMSO median, subpopulation auxotrophic for UM; higher = larger share of this subpopulation than in DMSO controls
Conditions: 10 µM; 24 h; SM minimal medium; subpopulation (auxotrophy): UM
Counter-ions that a name gives are not always drawn.
Label rule, in plain words: z-score of subpopulation abundance of -0.2 and up is T, under -0.2 is F.

Consider the following illustrative entries.
# Compound, Assigned Class
measured = [
    ("C[C@H](Nc1ncnc2nc[nH]c12)c1cc2cccc(Cl)c2c(=O)n1-c1ccccc1 [Duvelisib (IPI-145, INK1197)]", "F"),
    ("NC[C@H]1O[C@H](O[C@H]2[C@H](O[C@@H]3O[C@H](CO)[C@@H](O)[C@H]3O)[C@@H](O)[C@H](N)C[C@@H]2N)[C@H](N)[C@@H](O)[C@@H]1O [Ribostamycin Sulfate]", "T"),
    ("CC[C@H](Nc1ncnc2[nH]cnc12)c1nc2cccc(F)c2c(=O)n1-c1ccccc1 [Idelalisib (CAL-101, GS-1101)]", "T"),
    ("O=C1NCC2(CCN(CCc3ccccc3)CC2)O1 [Fenspiride HCl]", "T"),
    ("COCCCN1CCC(NC(=O)c2cc(Cl)c(N)c3c2OCC3)CC1 [Prucalopride Succinate]", "T"),
    ("CNCC[C@H](Oc1cccc2ccccc12)c1cccs1 [Duloxetine]", "F"),
    ("CCCCCOc1ccccc1/C(=C\\SC)n1ccnc1 [Neticonazole Hydrochloride]", "T"),
    ("CCC[S+]([O-])c1ccc2[nH]c(NC(=O)OC)nc2c1 (stereo unspecified) [Albendazole Oxide]", "T"),
    ("COc1ccc(CC2c3cc(OC)c(OC)cc3CC[N+]2(C)CCC(=O)OCCCCCOC(=O)CC[N+]2(C)CCc3cc(OC)c(OC)cc3C2Cc2ccc(OC)c(OC)c2)cc1OC (stereo unspecified) [Atracurium Besylate]", "F"),
    ("COCCCN1CCC(NC(=O)c2cc(Cl)c(N)c3c2OCC3)CC1 [Prucalopride]", "T"),
]

Here's the next entry for you.
Inquiry: Hello, I need to know if Cc1c(-c2ccc(O)cc2)n(Cc2ccc(OCCN3CCCCCC3)cc2)c2ccc(O)cc12 [Bazedoxifene HCl] has measured z-score of subpopulation abundance not below -0.2. Thanks!
Reply text: T

====

z-score of subpopulation abundance listing for selected molecules.
Test system: Saccharomyces cerevisiae BY4741 SeMeCo community
Experiment: z-score of subpopulation abundance vs DMSO median, subpopulation auxotrophic for HM; higher = larger share of this subpopulation than in DMSO controls
Conditions: 10 µM; 24 h; SM minimal medium; subpopulation (auxotrophy): HM
Where a name gives a salt, the structure may show the parent alone.
Give the figure by itself; no unit, no explanation.

Below are worked cases with known answers.
# Molecule, Reported Endpoint, Reported Value
data = [
    ("OC(Cn1cncn1)(Cn1cncn1)c1ccc(F)cc1F", "z-score of subpopulation abundance", -1.78),
    ("CC(C(=O)O)c1ccc2c(c1)CC(=O)c1ccccc1S2 (centres undefined)", "z-score of subpopulation abundance", 0.46),
    ("O=C(Nc1ccc(Oc2ccc(Cl)cc2)c(Cl)c1)c1cc(I)cc(I)c1O [Rafoxanide]", "z-score of subpopulation abundance", 0.8),
    ("Nc1ccc(S(=O)(=O)Nc2ncccn2)cc1 [Sulfadiazine]", "z-score of subpopulation abundance", -0.44),
    ("Cc1ccsc1/C=C/C1=NCCCN1C [Morantel tartrate]", "z-score of subpopulation abundance", -0.19),
]

Note: attention shifts to another entry.
Inquiry: Would you mind telling me what z-score of subpopulation abundance value was observed for CC(C)Cc1ccc(C(C)C(=O)O)cc1 (centres undefined) [Ibuprofen Lysine] ?
Reply text: -1.04
